Taken from PubChem BioAssay (NCI).

System: SNB-75 CNS
Experiment Notes: NCI-60 one-dose screen, 48 h
Settings: 10 µM unless noted
About 83,000 compounds went through this panel and 20% of them were active in at least one assay; those are over-represented in the sample as a whole. The source made the active and inactive calls. The calls were made as follows: active = growth percent below 10; inactive = the rest.
Select the correct class. Options are active, inactive and nothing else.

Below are worked cases with known answers.
CC#CC(=O)N1CCC[C@H]1c1nc(-c2ccc(C(=O)Nc3ccccn3)cc2)c2c(N)nccn12 | inactive
O=C(Cn1cncn1)Nc1ccc(-c2nc3ccccc3s2)cc1 | inactive
COc1cc2c(cc1OCCCCCCN1CCN(c3ncnc4ccccc34)CC1)N=CC1CCCN1C2=O (stereo not drawn) | active
O=C(O)c1ccc(Nc2ncc3c(n2)-c2ccc(Cl)cc2C(c2c(F)cccc2F)=NC3)cc1 | inactive
COC[C@@H](C)n1c(C2CCOCC2)nc2c1C1C=C(OC)C(c3c(C)noc3C)=CC1N=C2 (stereo partly drawn) | active
CNC(=O)c1cc(Oc2cccc3nc(Nc4ccc(Cl)c(F)c4)ccc23)ccn1 | active
COC1CCC(N2C(=O)CNc3ncc(-c4ccc(C(C)(C)O)nc4)nc32)CC1 (stereo not drawn) | active
CC(C)n1c(NCCc2ccc(O)c(O)c2)nc2c1c(=O)n(C)c(=O)n2C | inactive

Request: Per the assay record, what outcome was assigned to Cc1cc(-c2cc(O)ccc2Cl)cc2nnc(Nc3ccc(OCCN4CCCC4)cc3)nc12 ?
Result: active

Request: Per the assay record, what outcome was assigned to O=C(Cc1ccccc1)Nc1nnc(NC2CCN(c3nnc(NC(=O)Cc4ccccc4)s3)CC2)s1 ?
Result: inactive

Request: Per the assay record, what outcome was assigned to CN(C[C@@H]1COCCO1)S(=O)(=O)Nc1ccc2ccc3ncc(-c4cnn(C)c4)cc3c(=O)c2c1 ?
Result: inactive

Request: Per the assay record, what outcome was assigned to Cc1sc2c(c1C)c(=O)nc1c(-c3nc(-c4ccccc4)cs3)n[nH]n12 ?
Result: inactive

Request: Per the assay record, what outcome was assigned to Nc1ncnc2c1ccn2-c1cccc(NC(=O)c2ccc(N3CCOCC3)c(C(F)(F)F)c2)c1 ?
Result: inactive

Request: Per the assay record, what outcome was assigned to O=c1[nH]c([C@@H]2CCCN2)nc2c1oc1ccc(Cl)cc12 ?
Result: active

Request: Per the assay record, what outcome was assigned to Cc1nc(N)sc1-c1ccnc(Nc2ccc(N3CCOCC3)cc2)n1 ?
Result: active

Request: Per the assay record, what outcome was assigned to CN(c1ncccc1CNc1nc(Nc2ccc3c(c2)CC(=O)N3)ncc1C(F)(F)F)S(C)(=O)=O ?
Result: active

Request: Per the assay record, what outcome was assigned to O=C(Cn1ccnc1)Nc1ccc(-c2nc3ccccc3s2)cc1 ?
Result: inactive

Request: Per the assay record, what outcome was assigned to Oc1ccc(/C=N/Nc2nnc(N/N=C/c3ccc(O)cc3O)c3ccccc23)c(O)c1 ?
Result: active

====

Test system: SNB-19 CNS
Experiment Notes: NCI-60 one-dose screen, 48 h
Settings: 10 µM unless noted
Compounds without any hit were thinned out: in the full panel of roughly 83,000, 20% have a hit. The source made the active and inactive calls. The calls were made as follows: active = growth percent below 10; inactive = the rest.
Select the correct class. Options are Y (active), N (inactive) and nothing else.

Below are worked cases with known answers.
CCN1CCN(c2cc(C)nc(N(CCCNc3ccnc4cc(Cl)ccc34)Cc3cccs3)n2)CC1 | N
CN1CC[C@H](c2c(O)cc(O)c3c(=O)cc(-c4ccccc4Cl)oc23)[C@H](O)C1 | N
C#Cc1cccc(Nc2ncnc3cc(OC)c(OCCCCCCC(=O)NO)cc23)c1 | Y
COc1ccc2c(CCCc3ccc(Cl)cc3Cl)c3[n+](cc2c1OC)CCc1cc2c(cc1-3)OCO2 | N
O=[N+]([O-])c1cc(Br)cc2c1[nH]c1ccc(Br)cc12 | N

Request: Per the assay record, what outcome was assigned to COc1cccc2cc(-c3nc(C4CCC(C(=O)O)CC4)n4ncnc(N)c34)[nH]c12 (centres undefined) ?
Result: N

Request: Per the assay record, what outcome was assigned to COc1cc2ncnc(Nc3ccc(O)cc3)c2cc1OC ?
Result: N

Request: Per the assay record, what outcome was assigned to C[C@H](NC(=O)c1c(N)nn2cccnc12)c1cc2cccc(C#Cc3cnn(C)c3)c2c(=O)n1-c1ccccc1 ?
Result: N

Request: Per the assay record, what outcome was assigned to O=C(Nc1ccc(N=Nc2ccccc2)cc1)c1cccc2ccccc12 ?
Result: N

Request: Per the assay record, what outcome was assigned to COc1cc2c(cc1O)c(=O)n(CCN(C)C)c1c3cc4c(cc3ncc21)OCO4 ?
Result: Y

Request: Per the assay record, what outcome was assigned to Cc1ccc2oc(=O)cc(-c3cc(-c4cc5ccccc5oc4=O)nc(N)c3C#N)c2c1 ?
Result: N

Request: Per the assay record, what outcome was assigned to CCN1CCN(c2nc(C)cc(N(CCNc3ccnc4cc(Cl)ccc34)Cc3ccc4c(c3)OCO4)n2)CC1 ?
Result: N

Request: Per the assay record, what outcome was assigned to Clc1ccc2c(NCCNc3nc(N4CCCC4)nc4ccccc34)ccnc2c1 ?
Result: N

Request: Per the assay record, what outcome was assigned to COc1cc(N2CCC(N3CCN(C)CC3)CC2)ccc1Nc1ncnc(Nc2ccccc2S(=O)(=O)C(C)C)n1 ?
Result: N

Request: Per the assay record, what outcome was assigned to CCCCN1C(=O)c2cccc3c(-c4ccc5c(c4)ncn5C4CCCCC4)ccc(c23)C1=O ?
Result: N

Request: Per the assay record, what outcome was assigned to Cc1cc2c(-c3nc4ccccn4c3Nc3cccc4ccccc34)c(O)c(O)cc2c(O)c1-c1c(C)cc2c(-c3nc4ccccn4c3Nc3cccc4ccccc34)c(O)c(O)cc2c1O ?
Result: N

====

System: A549/ATCC NSCLC
Experiment Notes: NCI-60 one-dose screen, 48 h (100 = growth as untreated, 0 = no growth, -100 = all killed)
Settings: 10 µM unless noted
This is part of a sample that, as a whole, favours compounds with a hit. Of some 83,000 tested, about 20% had one in any assay.
Assay Metric: growth (%)
Quick reminder: number only, in %, skip the unit.

See these solved cases before continuing.
COc1cc2c(Oc3ccc4[nH]c(C)cc4c3F)ncnc2cc1OCCCN1CCCC1 | 84.5
COc1ccc(C2CC(=O)c3c(O)c(OC)c(OC)c(OC)c3O2)cc1O (stereo not drawn) | 28.7
COC(=O)[C@]12CC[C@@H](C)[C@H](C)[C@@H]1C1=CC[C@@H]3[C@@]4(C)C(C#N)=CC(C)=C4CC[C@@]3(C)[C@]1(C)CC2 | 92.2
COc1cc(NCCCN)c2ncccc2c1 | 95.9
Cc1cnc(Nc2ccc(OCCN3CCCC3)cc2)nc1Nc1cccc(S(=O)(=O)NC(C)(C)C)c1 | -53.6

Request: Returns the measured growth for the input molecule. Input: CN1CCN(CC(=O)Nc2ccc(-c3nc4ccccc4s3)cc2)CC1
Result: 88.6

Request: Returns the measured growth for the input molecule. Input: COc1cc2ncnc(Nc3cccc(Cl)c3F)c2cc1OC(=O)N1CCN(C)C[C@H]1C
Result: 40.8

Request: Returns the measured growth for the input molecule. Input: COc1cc2ncnc(Nc3ccc(O)cc3)c2cc1OC
Result: 45.8

Request: Returns the measured growth for the input molecule. Input: CN1CCN(CCOc2cc(OC3CCOCC3)c3c(Nc4c(Cl)ccc5c4OCO5)ncnc3c2)CC1
Result: 24.8

Request: Returns the measured growth for the input molecule. Input: COc1cnc2c(c1)C(=O)c1c-2n(CCCN2CCC(N)CC2)c(=O)c2cc([N+](=O)[O-])ccc12
Result: 23

Request: Returns the measured growth for the input molecule. Input: Cn1ccnc1C(=O)/C=C/c1ccc(CC(=O)Nc2ccc(Br)cc2)cc1
Result: 3.64

Request: Returns the measured growth for the input molecule. Input: CC(C)=CCc1cc2c(cc1O)C1=C(C(=O)C3=C(C1=O)S(=O)(=O)CCN3)C(C=C(C)C)O2 (stereo not drawn)
Result: -42.4

Request: Returns the measured growth for the input molecule. Input: CC(=Nc1ccccc1)C1=C(O)C(Cc2ccccc2)NC1=O (stereo not drawn)
Result: -28.9

Request: Returns the measured growth for the input molecule. Input: FC(F)c1nc2ccccc2n1-c1nc(N2CCOCC2)nc(N2CCOCC2)n1
Result: -17.2

Request: Returns the measured growth for the input molecule. Input: Nc1ncnc2c1ccn2-c1cccc(NC(=O)c2ccc(N3CCOCC3)c(C(F)(F)F)c2)c1
Result: 28.1

Request: Returns the measured growth for the input molecule. Input: CCc1nc2cc(/C=C/C(=O)NO)ccc2c(=O)n1CCc1ccc(OC)cc1
Result: 24.1

====

Test system: UACC-257 melanoma
Experiment Notes: NCI-60 one-dose screen, 48 h (100 = growth as untreated, 0 = no growth, -100 = all killed)
Settings: 10 µM unless noted
Procedure: Cells are grown in 96 well plates and exposed to the test compound for 48 hours. Compounds are tested at a single concentration, which is 10^-5 M for most compounds. The reported endpoint is percent growth (GI% or GIPRCNT), where numbers from 0 - 100% represent growth inhibition, and numbers from -100% - 0 represent cell death. For example, a value of 40 represents 60% growth inhibition. A value of 0 means no net growth occurred over the course of the experiment. […]
About 83,000 compounds went through this panel and 20% of them were active in at least one assay; those are over-represented in the sample as a whole.
Assay Metric: growth (%)
Quick reminder: number only, in %, skip the unit.

See these solved cases before continuing.
Cc1ncc(-c2ccnc(Nc3ccc(S(C)(=O)=O)cc3)n2)n1C(C)C | -28.3
c1cn2cc(-c3ccc4cn[nH]c4c3)nc(Nc3ccc(N4CCOCC4)cc3)c2n1 | 62.6
CNC(=O)c1cc(COc2nnc(Nc3ccc(Cl)cc3)c3ccoc23)ccn1 | 33.3

Request: Returns the measured growth for the input molecule. Input: CNC(=O)c1cccc2cc(Oc3ccnc4cc(OCC5(N)CC5)c(OC)cc34)ccc12
Result: 90.2

Request: Returns the measured growth for the input molecule. Input: COc1ccc(Br)cc1NC(=O)Nc1cccc2c1ccn2Cc1ccnc(N)c1
Result: 32.5

Request: Returns the measured growth for the input molecule. Input: CNC(=O)c1cc(Oc2ccc(NC(=O)Nc3ccc(Cl)c(C(F)(F)F)c3)c(F)c2)ccn1
Result: -50.3

Request: Returns the measured growth for the input molecule. Input: Cn1cc(-c2ccc(F)c(C(F)(F)F)c2)nc1C1CCN(c2ncnc3[nH]ncc23)CC1
Result: 74.3

Request: Returns the measured growth for the input molecule. Input: O=C(Nc1cn[nH]c1-c1nc2ccc(CN3CCOCC3)cc2[nH]1)NC1CC1
Result: 59.7
